B1: RAB22A (parent)
chain: FVEDSFDPNINPTIGASFMTKTVQ

Variants of: B1
Assay: protein stability index of a GFP-peptide fusion (GPS, HEK-293T) (PSI 1-6); higher = more stable;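 note: lentivirally expressed fusions sorted by FACS into six bins by GFP to DsRed ratio, PSI derived from sequencing read proportions per bin multiplied by bin number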
Settings: c terminus: a fixed tail appended
measure: protein stability index
Reply with just the number.

Worked examples, 6 variants total:
FVEDSFDPNINPTMGASFMTKTVQ
2.55
FPEDSFDPNINPTIGASFMTKTVQ
4.33
FVEDSFDPNCNPTIGASFMTKTVQ
2.14
FVEWSFDPNINPTIGASFMTKTVQ
2.1
FVKDSFDPNINPTIGASFMTKTVQ
1.88
FVEDSEDPNINPTIGASFMTKTVQ
4.08

Request: Requested field: protein stability index. Item: FVEDSKDPNINPTIGASFMTKTVQ
Result: 2.71

Request: // lookup protein stability index for VVEDSFDPNINPTIGASFMTKTVQ
Result: 3.79

Request: Consider the variant FVEDSFDPMINPTIGASFMTKTVQ and give its measured protein stability index.
Result: 2.35

Request: What protein stability index value was documented for this variant, FVEDSFDPGINPTIGASFMTKTVQ ?
Result: 2.78

Request: Could you tell me which protein stability index is on file for FVEDSFDPNINPTIGASFMTKDVQ ?
Result: 2.85

Request: What does the record list as protein stability index for FVEDSFDPNINPTIGASDMTKTVQ ?
Result: 3.45

Request: I have this variant here, FVEDSFDQNINPTIGASFMTKTVQ , and I need its recorded protein stability index.
Result: 2.26

Request: Suppose we examine the variant FVEDPFDPNINPTIGASFMTKTVQ ; what protein stability index value has been reported?
Result: 1.96

Request: Fill blank: measured protein stability index of the variant FVEDSFDPNINPTTGASFMTKTVQ is ____.
Result: 2.78

Request: Given the variant FVEDSFDPNINPTWGASFMTKTVQ , what is its reported protein stability index?
Result: 2.43

Request: Consider the variant shown here: FVEDSFDPNINPTIGASFMTKTLQ What is its recorded protein stability index?
Result: 2.93

Request: Return reported protein stability index; argument: FVEDSLDPNINPTIGASFMTKTVQ
Result: 2.56

Request: Give its protein stability index value. Item: FVEDSFHPNINPTIGASFMTKTVQ
Result: 2

Request: Give its protein stability index value. Item: FVEDSFDPNQNPTIGASFMTKTVQ
Result: 2.81

Request: Which protein stability index reading was recorded for the variant FVEDSFDPNINPTIGASFMYKTVQ ?
Result: 1.86

Request: I would be grateful if you could share the reported protein stability index for FVEDSFDPNINPTIEASFMTKTVQ .
Result: 2.86

Request: Dear colleague, I am looking for the recorded protein stability index of the following variant: FVEDSFIPNINPTIGASFMTKTVQ
Result: 2

Request: Fill in: protein stability index of FNEDSFDPNINPTIGASFMTKTVQ is ___
Result: 3.62

Request: Reported protein stability index, variant FVEDSFDPNINPTRGASFMTKTVQ : ____
Result: 2.14

Request: What protein stability index value was documented for this variant, FVEDSFDDNINPTIGASFMTKTVQ ?
Result: 2.76

Request: May I ask what protein stability index has been recorded for FVEDSFDPNINPTIGFSFMTKTVQ ?
Result: 2.07
